Measured values drawn from PubChem BioAssay (NCATS) for this set.

Target: Cytochrome P450 2C9 (Homo sapiens)
Experiment: Cytochrome P450 family 2 subfamily C member 9 (CYP2C9) small molecule antagonists: luciferase biochemical (cell-free) qHTS assay (AID 1645842); also: nearly all actives have a fitted effect of over 55% in size
Details: P450-Glo CYP2C9 enzyme assay, luciferin luminescence; series mostly up to 57.4 µM
Inconclusive results are not listed. Calls of active or inactive are those of the source. Calls follow the shape of the dose curve; as a rule, active = well fitted inhibition curve with a large enough effect in the repeat runs; inconclusive = weak or mixed curves; inactive = no such curve, though single readings can be large or run the other way.
The reply should be one of these categories: yes (1) (active), no (0) (inactive)

Known results for compounds:
O=C1CN=C(c2ccccc2Cl)c2cc(Br)ccc2N1 : yes (1)
C[C@H](Nc1ncnc2nc[nH]c12)c1nc2ccc(F)cc2c(=O)n1-c1ccccc1 : yes (1)
CN(C)c1cc2c(cc1Sc1nc3c(N)nccc3n1CCNCC(C)(C)C)OCO2 : yes (1)
O=C1CN=C(c2cccc(Br)c2)c2oc3ccccc3c2N1 : yes (1)
CCCCCn1cc(C(=O)Cc2ccccc2OC)c2ccccc21 : yes (1)

Each compound tested received a call. Report the one for `CC(C)[C@H](NC(=O)c1nn(Cc2ccc(F)cc2)c2ccccc12)C(N)=O` .
yes (1)

Record: `N#Cc1ccc(N2CCN(C(=O)COc3ccc4[nH]cc(CCN)c4c3)CC2)cc1`
yes (1)

Quick one: `CC1(C)C(=O)N(c2ccc(C#N)c(C(F)(F)F)c2)C(=O)N1CCCCO`
yes (1)

`C[C@@H](CN1CCC2(CC1)C(=O)NCN2c1cccc(F)c1)NC(=O)c1ccc(Br)cc1` ?
yes (1)

Queued: `CCCCCn1cc(C(=O)c2cccc3ccccc23)c2ccccc21`
yes (1)

What about `FC(F)(F)c1ccc(N2CCNCC2)nc1Cl` ?
no (0)
